Data credit: PubChem BioAssay (NCI)

test system: SNB-19 CNS; assay: NCI-60 one-dose screen, 48 h; settings: 10 µM unless noted
Compounds without any hit were thinned out: in the full panel of roughly 83,000, 20% have a hit. Active and inactive are the calls of the source. How the source made its calls: active means growth percent below 10; inactive means the rest.
Classes used: active, inactive

[[record]]
compound = "CCOC(=O)c1c[nH]c2cc(OCC3CC3)c(OCC3CC3)cc2c1=O"
assigned_category = "inactive"

[[record]]
compound = "O=C(Nc1cccc2ccccc12)c1cc2ccccc2cc1O"
assigned_category = "inactive"

[[record]]
compound = "CC1(C)[C@@H](NOCCCN)CC[C@]2(C)[C@H]3C(=O)C=C4[C@@H]5C[C@](C)(C(=O)O)CC[C@]5(C)CC[C@@]4(C)[C@]3(C)CC[C@@H]12"
assigned_category = "active"

[[record]]
compound = "Ic1ccc2[nH]cc(SSc3c[nH]c4ccc(I)cc34)c2c1"
assigned_category = "inactive"

[[record]]
compound = "O=C(CSc1nc2ccc([N+](=O)[O-])cc2[nH]1)Nc1ccc(F)c(Cl)c1"
assigned_category = "inactive"

[[record]]
compound = "Cn1cc(-c2nnc(-c3cn(C)c4ncccc34)o2)c2ccccc21"
assigned_category = "inactive"

[[record]]
compound = "COc1ccc(/C=C2\\N=C(Nc3ccccc3)N(NC(=O)c3ccccn3)C2=O)cc1"
assigned_category = "inactive"

[[record]]
compound = "O=C1NC(=O)c2cc([N+](=O)[O-])cc3cccc1c23"
assigned_category = "inactive"

[[record]]
compound = "CNC(=O)c1cc(Oc2ccc3nc(NC(=O)c4ccc5ncccc5c4)sc3c2)ccn1"
assigned_category = "inactive"

[[record]]
compound = "Clc1ccccc1/C=N\\Nc1ccccn1"
assigned_category = "inactive"

[[record]]
compound = "Cc1cnc(N)nc1OCCNC(=O)c1cccc(-c2ccc(S(=O)(=O)Nc3ccc4c(c3)N(C(=O)C3CC3)CCC4)cc2)c1"
assigned_category = "inactive"

[[record]]
compound = "CCOc1ccc(S(=O)(=O)Nc2ccc3c(c2)N(S(=O)(=O)CC)CCC3)cc1"
assigned_category = "inactive"

[[record]]
compound = "OC(c1ccc(Cl)cc1)(c1ccc(Cl)cc1)C(O)(c1ccc(Cl)cc1)c1ccc(Cl)cc1"
assigned_category = "inactive"

[[record]]
compound = "Nc1ccc(Cl)c([N+](=O)[O-])c1"
assigned_category = "inactive"

[[record]]
compound = "O=C1CC(c2ccccc2)Cc2nc3ccc(Cl)cc3cc21 (stereo unspecified)"
assigned_category = "inactive"

[[record]]
compound = "NS(=O)(=O)c1ccc(CCN2C(=O)/C(=C\\c3ccccc3)C=C2c2ccc(Cl)cc2)cc1"
assigned_category = "inactive"

[[record]]
compound = "CC(C)C1=NOC(=O)C1=Cc1cn(-c2ccco2)nc1-c1ccccc1"
assigned_category = "inactive"

[[record]]
compound = "Fc1ccc(NC(=S)c2ccccc2)cc1"
assigned_category = "inactive"

[[record]]
compound = "CSc1cccc([N+](=O)[O-])c1"
assigned_category = "inactive"

[[record]]
compound = "N#C/C(=C(/O)CCCO)c1nc2ccccc2c(=O)[nH]1"
assigned_category = "inactive"

[[record]]
compound = "C=C1C(=O)O[C@H]2[C@H]1CC/C(COC(=O)NCc1ccc(Cn3c(=O)sn(-c4ccc(Cl)cc4)c3=O)cc1)=C\\CC[C@@]1(C)O[C@@H]21"
assigned_category = "inactive"


====

Each entry below carries its reported growth.
system: T-47D breast; test: NCI-60 one-dose screen, 48 h (100 = growth as untreated, 0 = no growth, -100 = all killed); conditions: 10 µM unless noted
Compounds without any hit were thinned out: in the full panel of roughly 83,000, 20% have a hit. The source made the active and inactive calls. How the source made its calls: active means growth percent below 10; inactive means the rest.
VALUE TYPE: growth

[[record]]
sample_smiles = "Ic1ccc2[nH]cc(SSc3c[nH]c4ccc(I)cc34)c2c1"
measured_result = "26.7% (inactive)"

[[record]]
sample_smiles = "CN(C)CCOc1ccc(/C(=C(/CCCl)c2ccccc2)c2ccccc2)cc1"
measured_result = "25.6% (inactive)"

[[record]]
sample_smiles = "CCCc1cc2cc(-n3nc(C)c4c3CC(C)(C)CC4=O)cc(NC3CCSCC3)c2c(=O)[nH]1"
measured_result = "54.7% (inactive)"

[[record]]
sample_smiles = "CCOC(=O)n1cc(C2=C(c3ccc(OC)c(OC)c3)COC2=O)c2ccccc21"
measured_result = "48.8% (inactive)"

[[record]]
sample_smiles = "O=C(Oc1ccc(Cl)cc1[N+](=O)[O-])Oc1ccc(Cl)cc1[N+](=O)[O-]"
measured_result = "115% (inactive)"


====

Reported values of growth for individual entries
System: ACHN renal
Assay: NCI-60 one-dose screen, 48 h (100 = growth as untreated, 0 = no growth, -100 = all killed)
Settings: 10 µM unless noted
Experimental: Growth inhibition of the ACHN human tumor cell line is measured as a screen for anti-cancer activity. Cells are grown in 96 well plates and exposed to the test compound for 48 hours. Compounds are tested at a single concentration, which is 10^-5 M for most compounds. The reported endpoint is percent growth (GI% or GIPRCNT), where numbers from 0 - 100% represent growth inhibition, and numbers from -100% - 0 represent cell death. For example, a value of 40 represents 60% growth inhibition. […]
Compounds without any hit were thinned out: in the full panel of roughly 83,000, 20% have a hit.
VALUE TYPE: growth (%)

[[record]]
molecule = "O=C(CCN1CCCCC1)c1ccc(Cl)cc1"
study_target = "ACHN renal"
value_type = "growth"
measured_result = 110

[[record]]
molecule = "O=C1CN(Cc2ccc(C(=O)NO)cc2)C(=O)[C@@H](Cc2ccccc2)N1"
study_target = "ACHN renal"
value_type = "growth"
measured_result = 103

[[record]]
molecule = "CN(C)CCOc1ccc(/C(=C(/CCCl)c2ccccc2)c2ccccc2)cc1"
study_target = "ACHN renal"
value_type = "growth"
measured_result = 30.1

[[record]]
molecule = "CCCCN(CC)CC(CC)Nc1cc(OC)cc2cccnc12 (stereo unspecified)"
study_target = "ACHN renal"
value_type = "growth"
measured_result = 104

[[record]]
molecule = "O=C(N/N=C/c1ccc([N+](=O)[O-])cc1)c1ccc(Br)o1"
study_target = "ACHN renal"
value_type = "growth"
measured_result = 107

[[record]]
molecule = "N#C/C(=C(/O)CCCO)c1nc2ccccc2c(=O)[nH]1"
study_target = "ACHN renal"
value_type = "growth"
measured_result = 106


====

test system: HCT-15 colon; assay: NCI-60 one-dose screen, 48 h; settings: 10 µM unless noted
About 83,000 compounds went through this panel and 20% of them were active in at least one assay; those are over-represented in the sample as a whole. Activity calls are given as the source filed them. Rule for the calls: active = growth percent below 10; inactive = the rest.
Classes used: 1 = active, 0 = inactive

[[record]]
sample_smiles = "C[C@@H](NC(=O)[C@@H](CC(=O)N1CCC(N2CCCCC2)CC1)N1C(=O)[C@@H](N2C(=O)OC[C@@H]2c2ccccc2)[C@H]1/C=C/c1cccc(Cl)c1)c1ccccc1"
assigned_category = 0

[[record]]
sample_smiles = "c1ccc(-c2nnc(-c3c[nH]c4ncccc34)s2)cc1"
assigned_category = 0

[[record]]
sample_smiles = "C=C(C)[C@@H]1CC[C@]2(C(N)=O)CC[C@]3(C)[C@H](CC[C@@H]4[C@@]5(C)CC[C@H](O)C(C)(C)[C@@H]5CC[C@]43C)[C@@H]12"
assigned_category = 1

[[record]]
sample_smiles = "COc1cc(/C=C/C(=O)/C=C/c2ccc(-n3ccnc3)cc2)ccc1O"
assigned_category = 0


====

tested on: OVCAR-5 ovarian; assay: NCI-60 one-dose screen, 48 h (100 = growth as untreated, 0 = no growth, -100 = all killed); details: 10 µM unless noted
Compounds without any hit were thinned out: in the full panel of roughly 83,000, 20% have a hit.
The entries below are paired with their reported growth.
VALUE TYPE: growth (%)

[[record]]
sample_smiles = "CC(C)C1=NOC(=O)C1=Cc1cn(-c2ccccc2)nc1-c1ccc(Br)cc1"
measured_result = 100

[[record]]
sample_smiles = "CC(C)(C)c1cc(C(=O)Nc2ccccc2C(=O)NCCN)cc(C(C)(C)C)c1"
measured_result = 27

[[record]]
sample_smiles = "Cc1ccc(NC(=O)N[C@@H](Cc2cc(F)cc(F)c2)C(=O)N[C@@H]2C(=O)N3CCC[C@H]3C(=O)N3CCOC[C@H]3C(=O)N[C@@H](C)C(=O)N3C[C@H](C)C[C@H]3C(=O)O[C@H]2C)cc1"
measured_result = 38

[[record]]
sample_smiles = "O=C(CCN1CCCCC1)c1ccc(Cl)cc1"
measured_result = 102

[[record]]
sample_smiles = "CC(=O)CC(=O)SC1=NCCS1"
measured_result = 117


====

test system: SN12C renal; assay: NCI-60 one-dose screen, 48 h (100 = growth as untreated, 0 = no growth, -100 = all killed); settings: 10 µM unless noted
About 83,000 compounds went through this panel and 20% of them were active in at least one assay; those are over-represented in the sample as a whole.
Please note: label 1 applies when growth is 40% or greater, and label 0 applies otherwise.

[[record]]
molecule = "COc1cc2c(c(OC)c1OC)-c1cc(I)c(O)cc1[C@@H](NC(C)=O)CC2"
assigned_category = "label 0"

[[record]]
molecule = "CCN(CC)c1ccc(/C=C/c2ccc3cc(C)ccc3[n+]2CC)cc1"
assigned_category = "label 0"

[[record]]
molecule = "COc1cc(C(=O)/C=C/c2c(-c3ccc(F)cc3)nc3sccn23)cc(OC)c1OC"
assigned_category = "label 1"

[[record]]
molecule = "O=C1/C(=C/c2ccc(OCc3ccccc3)cc2)Oc2cc(OCCN3CCCCC3)ccc21"
assigned_category = "label 1"

[[record]]
molecule = "C[C@@H]1C[C@H]2C(=O)O[C@@H](C)[C@H](NC(=O)[C@H](Cc3cc(F)cc(F)c3)NC(=O)Nc3ccc(Cl)cc3F)C(=O)N3C[C@H](O)C[C@H]3C(=O)N3CCN(C)C[C@H]3C(=O)N[C@@H](C)C(=O)N2C1"
assigned_category = "label 0"

[[record]]
molecule = "COc1ccc(/C=C2\\N=C(Nc3ccccc3)N(NC(=O)c3ccccn3)C2=O)cc1"
assigned_category = "label 1"

[[record]]
molecule = "NC(=O)CC1C=CCC1 (centres undefined)"
assigned_category = "label 1"

[[record]]
molecule = "Cc1cc[n+](CCCCCCCCCC[n+]2ccc(C)cc2)cc1"
assigned_category = "label 1"

[[record]]
molecule = "Nc1nc(Cl)c2ncn(Cc3cc4c(cc3I)OCO4)c2n1"
assigned_category = "label 0"

